Reference source for all entries: patent US10703756B2

Target: JAK3 enzyme (Homo sapiens)
Assay: JAK Caliper Enzyme Assay at 4 μM ATP
Type: biochemical
Observable: pIC50
Value format note: pIC50 is -log10 of concentration (mol/L); just state the number.

Molecule: C=CC(=O)N1CCCC(Oc2cnc3[nH]cc(C(=O)N[C@@H](C)COC)c3n2)C1 (mixture of isomers)
Assay system: JAK3 enzyme (Homo sapiens)
pIC50: 8.53
//
Molecule: C=CC(=O)N1CCN(c2cnc3[nH]cc(C(=O)N[C@H](CC)CC#N)c3n2)CC1(C)C
Assay system: JAK3 enzyme (Homo sapiens)
pIC50: 9.27

Q: Query pIC50 on JAK3 enzyme (Homo sapiens) for C=CC(=O)N1CCN(c2cnc3[nH]cc(C(=O)NC4CCCOC4)c3n2)CC1(C)C (racemic)
Result: 9.25

Q: Query pIC50 on JAK3 enzyme (Homo sapiens) for C=CC(=O)N1CCC(Oc2cnc3[nH]cc(-c4nnco4)c3n2)CC1
Result: 8.18

Q: Query pIC50 on JAK3 enzyme (Homo sapiens) for C=CC(=O)N1CCC(Oc2cnc3[nH]cc(C(=O)NCc4ccccc4F)c3c2)CC1
Result: 7.39

----------
Target: JAK3 enzyme (Homo sapiens, UniProt P52333)
Sequence (P52333 1-1124): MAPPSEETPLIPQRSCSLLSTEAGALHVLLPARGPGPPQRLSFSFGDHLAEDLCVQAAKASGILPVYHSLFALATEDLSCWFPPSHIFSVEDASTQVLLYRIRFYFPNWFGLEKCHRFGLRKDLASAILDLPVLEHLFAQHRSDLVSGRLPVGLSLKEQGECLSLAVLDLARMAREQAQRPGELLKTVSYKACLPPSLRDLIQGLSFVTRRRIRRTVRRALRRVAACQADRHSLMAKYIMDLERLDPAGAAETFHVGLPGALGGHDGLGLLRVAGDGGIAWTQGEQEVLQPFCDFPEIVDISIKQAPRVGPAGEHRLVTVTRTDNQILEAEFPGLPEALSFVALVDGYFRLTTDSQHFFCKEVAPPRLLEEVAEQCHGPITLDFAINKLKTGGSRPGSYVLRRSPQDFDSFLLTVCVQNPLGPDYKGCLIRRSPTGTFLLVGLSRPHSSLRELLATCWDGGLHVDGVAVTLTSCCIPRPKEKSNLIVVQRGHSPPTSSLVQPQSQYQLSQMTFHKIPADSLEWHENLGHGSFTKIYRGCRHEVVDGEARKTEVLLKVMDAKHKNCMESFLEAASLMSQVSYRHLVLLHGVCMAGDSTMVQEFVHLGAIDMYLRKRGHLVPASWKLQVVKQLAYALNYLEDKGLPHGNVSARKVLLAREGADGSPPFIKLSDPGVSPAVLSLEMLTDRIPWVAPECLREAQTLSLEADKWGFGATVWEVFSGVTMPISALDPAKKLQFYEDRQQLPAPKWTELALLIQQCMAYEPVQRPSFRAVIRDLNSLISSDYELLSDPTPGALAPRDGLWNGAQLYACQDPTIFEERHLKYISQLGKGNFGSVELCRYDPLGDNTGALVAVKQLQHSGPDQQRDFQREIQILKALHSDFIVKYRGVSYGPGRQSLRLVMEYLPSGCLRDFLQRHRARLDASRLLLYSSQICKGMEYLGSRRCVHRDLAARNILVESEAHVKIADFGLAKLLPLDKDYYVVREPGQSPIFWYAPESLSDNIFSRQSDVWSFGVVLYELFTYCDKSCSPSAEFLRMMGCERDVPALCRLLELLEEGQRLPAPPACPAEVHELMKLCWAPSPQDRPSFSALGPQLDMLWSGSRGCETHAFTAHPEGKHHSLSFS
Assay: JAK Caliper Enzyme Assay at 1 mM ATP
Assay type: biochemical
Recorded measurements of IC50, one per entry
The reply should contain only the number, in µM.

Molecule: C=CC(=O)N1C[C@@H](Nc2ncnc3[nH]ccc23)CC[C@H]1CNC(C)=O (single isomer, unassigned)
Unit symbol: µM
Reported value: 0.152

Q: What does the data say about its IC50? Entry: C=CC(=O)N1CCC(C)(Nc2cnc3[nH]cc(C(=O)NCC)c3n2)CC1
Result: 0.073

Q: What does the data say about its IC50? Entry: C=CC(=O)N1CCC(Oc2cnc3[nH]cc(C(=O)N[C@H](C(C)C)[C@@H](O)C(F)(F)F)c3n2)CC1
Result: 0.697
